B1: CCDC89 (parent)
chain: LNAELEEKMMQEAEKLKAQGEYSR

variants of: B1; assay: protein stability index of a GFP-peptide fusion (GPS, HEK-293T) (PSI 1-6); higher = more stable; settings: c terminus: a fixed tail appended;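 note: lentivirally expressed fusions sorted by FACS into six bins by GFP to DsRed ratio, PSI derived from sequencing read proportions per bin multiplied by bin number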

{"input.sequence": "LNAELEEKMMREAEKLKAQGEYSR [Q11R]", "protein stability index": 4.76}
{"input.sequence": "LNAELEEKMMQEWEKLKAQGEYSR [A13W]", "protein stability index": 4.13}
{"input.sequence": "LNAELEEKMMQEAEKLFAQGEYSR [K17F]", "protein stability index": 4.3}
{"input.sequence": "LNAELEEKMMQEAEKIKAQGEYSR [L16I]", "protein stability index": 5.82}
{"input.sequence": "LNAELEEKMMQEMEKLKAQGEYSR [A13M]", "protein stability index": 5}
{"input.sequence": "LNAELEEKHMQEAEKLKAQGEYSR [M9H]", "protein stability index": 5.95}
{"input.sequence": "LNAELEEKMMCEAEKLKAQGEYSR [Q11C]", "protein stability index": 5.38}
{"input.sequence": "LNVELEEKMMQEAEKLKAQGEYSR [A3V]", "protein stability index": 5.13}
{"input.sequence": "LNAELEEKMMQIAEKLKAQGEYSR [E12I]", "protein stability index": 3.28}
{"input.sequence": "LNAELEEKMMQEAEKLKWQGEYSR [A18W]", "protein stability index": 4.15}
{"input.sequence": "LNAELEEKMTQEAEKLKAQGEYSR [M10T]", "protein stability index": 5.42}
